test system: NCI-H460; assay: Cytotoxicity against human NCI-H460 cells assessed as growth inhibition after 48 hrs by sulforhodamine B assay; type: functional; details: NCI-H460, 48 h
Please note: 1.0 applies when TGI is 4 µM or greater, and 0.0 applies otherwise.

Decide: TGI of `COc1ccc(-c2cc(/C=C/C(=O)c3ccc(N)cc3)[nH]n2)cc1` >= 4 µM? 1.0

Decide: TGI of `COc1cc2c(cc1OC)C(=O)/C(=C/c1cc(-c3ccc4c(c3)OCO4)n[nH]1)C2` >= 4 µM? 0.0

Decide: TGI of `COc1cc(-c2cc(/C=C/C(=O)c3ccc4c(c3)OCO4)[nH]n2)cc(OC)c1OC` >= 4 µM? 1.0

Decide: TGI of `COc1ccc(C(=O)/C=C/c2cc(-c3cc(OC)c(OC)c(OC)c3)n[nH]2)cc1OC` >= 4 µM? 0.0

Decide: TGI of `COc1ccc(C(=O)/C=C/c2cc(-c3cc(OC)c(OC)c(OC)c3)n[nH]2)cc1` >= 4 µM? 0.0

More entries:
Decide: TGI of `COc1cc(-c2cc(/C=C/C(=O)c3ccc(F)c(F)c3)[nH]n2)cc(OC)c1OC` >= 4 µM? 1.0

====

tested on: NCI-H322M; assay: Cytotoxicity against human NCI-H322M cells assessed as growth inhibition after 48 hrs by sulforhodamine B assay; format: functional; conditions: read-out: LC50 (the source's name)
Reported CC50 values are given for each entry in this list.
Reply numerically in µM, unit not repeated.

Please review the entries below; each comes with its answer.
Observed CC50 on NCI-H322M for `COc1ccc(C(=O)/C=C/c2cc(-c3cc(OC)c(OC)c(OC)c3)n[nH]2)cc1OC` , please. 5.51

Observed CC50 on NCI-H322M for `COc1cc(-c2cc(/C=C/C(=O)c3ccc(N)cc3)[nH]n2)cc(OC)c1OC` , please. 20.9

Observed CC50 on NCI-H322M for `COc1cc2c(cc1OC)C(=O)/C(=C/c1cc(-c3ccc4c(c3)OCO4)n[nH]1)C2` , please. 5.87

Turning to the following compound.
Observed CC50 on NCI-H322M for `COc1cc(C(=O)/C=C/c2cc(-c3ccc4c(c3)OCO4)n[nH]2)cc(OC)c1OC` , please. 24.3

====

Reported LC50 values are given for each entry in this list.
tested on: MCF7; test: Cytotoxicity against human MCF7 cells assessed as growth inhibition after 48 hrs by sulforhodamine B assay; type: functional; conditions: MCF7, 48 h
Reply numerically in µM, unit not repeated.

Entry under review: `COc1cc(-c2cc(/C=C/C(=O)c3ccc(N)cc3)[nH]n2)cc(OC)c1OC` . Reported LC50? 60.5

Entry under review: `COc1cc2c(cc1OC)C(=O)/C(=C/c1cc(-c3ccc4c(c3)OCO4)n[nH]1)C2` . Reported LC50? 4.52

Entry under review: `COc1cc(C(=O)/C=C/c2cc(-c3cc(OC)c(OC)c(OC)c3)n[nH]2)cc(OC)c1OC` . Reported LC50? 5.22

Turning to the following compound.
Entry under review: `COc1ccc(-c2cc(/C=C/C(=O)c3ccc(N)cc3)[nH]n2)cc1` . Reported LC50? 34.1

====

tested on: UACC-62; experiment: Cytotoxicity against human UACC62 cells assessed as cell growth at 0.01 uM after 48 hrs by sulforhodamine B assay relative to control; assay type: functional; details: UACC-62, 48 h, read-out: Activity
Endpoint: growth at 0.01 µM (%)
Reply numerically in %, unit not repeated.

Entry under review: `COc1ccc(-c2cc(/C=C/C(=O)c3cc(OC)c(OC)c(OC)c3)[nH]n2)cc1OC` . Reported growth at 0.01 µM? 96

Entry under review: `COc1cc2c(cc1OC)C(=O)/C(=C/c1cc(-c3ccc4c(c3)OCO4)n[nH]1)C2` . Reported growth at 0.01 µM? 100

Entry under review: `COc1ccc(C(=O)/C=C/c2cc(-c3cc(OC)c(OC)c(OC)c3)n[nH]2)cc1OC` . Reported growth at 0.01 µM? 98

Turning to the following compound.
Entry under review: `COc1cc(C(=O)/C=C/c2cc(-c3cc(OC)c(OC)c(OC)c3)n[nH]2)cc(OC)c1OC` . Reported growth at 0.01 µM? 97

====

test system: HCC 2998; experiment: Cytotoxicity against human HCC2998 cells assessed as cell growth at 100 uM after 48 hrs by sulforhodamine B assay relative to control; format: functional; conditions: HCC 2998, 48 h, read-out: Activity
Endpoint: growth at 100 µM (%)
Reply numerically in %, unit not repeated.

Please review the entries below; each comes with its answer.
Entry under review: `COc1ccc(-c2cc(/C=C/C(=O)c3ccc(N)cc3)[nH]n2)cc1OC` . Reported growth at 100 µM? -91

Entry under review: `COc1ccc(C(=O)/C=C/c2cc(-c3ccc(OC)c(OC)c3)n[nH]2)cc1OC` . Reported growth at 100 µM? -91

Entry under review: `COc1cc(-c2cc(/C=C/C(=O)c3ccc(F)c(F)c3)[nH]n2)cc(OC)c1OC` . Reported growth at 100 µM? -11

Turning to the following compound.
Entry under review: `COc1cc(C(=O)/C=C/c2cc(-c3cc(OC)c(OC)c(OC)c3)n[nH]2)cc(OC)c1OC` . Reported growth at 100 µM? -89

====

test system: U-251; test: Cytotoxicity against human U251 cells assessed as growth inhibition after 48 hrs by sulforhodamine B assay; assay type: functional; conditions: U-251, 48 h
Reported TGI values are given for each entry in this list.
Answer format: number, then unit.

Please review the entries below; each comes with its answer.
Observed TGI on U-251 for `COc1cc(-c2cc(/C=C/C(=O)c3ccc(N)cc3)[nH]n2)cc(OC)c1OC` , please. 2770 nM

Observed TGI on U-251 for `COc1ccc(-c2cc(/C=C/C(=O)c3ccc(N)cc3)[nH]n2)cc1OC` , please. 3660 nM

Observed TGI on U-251 for `COc1ccc(C(=O)/C=C/c2cc(-c3ccc4c(c3)OCO4)n[nH]2)cc1OC` , please. 5370 nM

Observed TGI on U-251 for `COc1ccc(C(=O)/C=C/c2cc(-c3cc(OC)c(OC)c(OC)c3)n[nH]2)cc1OC` , please. 2480 nM

Observed TGI on U-251 for `COc1cc(-c2cc(/C=C/C(=O)c3ccc4c(c3)OCO4)[nH]n2)cc(OC)c1OC` , please. 5450 nM

Observed TGI on U-251 for `COc1ccc(C(=O)/C=C/c2cc(-c3cc(OC)c(OC)c(OC)c3)n[nH]2)cc1` , please. 2830 nM

Turning to the following compound.
Observed TGI on U-251 for `COc1ccc(-c2cc(/C=C/C(=O)c3ccc(N)cc3)[nH]n2)cc1` , please. 2570 nM

====

system: OVCAR-8; assay: Cytotoxicity against human OVCAR8 cells assessed as cell growth at 1 uM after 48 hrs by sulforhodamine B assay relative to control; format: functional; settings: OVCAR-8, 48 h, read-out: Activity
Endpoint: growth at 1 µM (%)
Reply numerically in %, unit not repeated.

Please review the entries below; each comes with its answer.
Entry under review: `COc1cc(C(=O)/C=C/c2cc(-c3cc(OC)c(OC)c(OC)c3)n[nH]2)cc(OC)c1OC` . Reported growth at 1 µM? 81

Entry under review: `COc1ccc(-c2cc(/C=C/C(=O)c3ccc(N)cc3)[nH]n2)cc1` . Reported growth at 1 µM? 76

Entry under review: `COc1cc(-c2cc(/C=C/C(=O)c3ccc(N)cc3)[nH]n2)cc(OC)c1OC` . Reported growth at 1 µM? 81

Entry under review: `COc1ccc(-c2cc(/C=C/C(=O)c3cc(OC)c(OC)c(OC)c3)[nH]n2)cc1OC` . Reported growth at 1 µM? 80

Turning to the following molecule.
Entry under review: `COc1cc(-c2cc(/C=C/C(=O)c3ccc(F)c(F)c3)[nH]n2)cc(OC)c1OC` . Reported growth at 1 µM? 89

====

tested on: HCT-15; test: Cytotoxicity against human HCT15 cells assessed as growth inhibition after 48 hrs by sulforhodamine B assay; format: functional; settings: HCT-15, 48 h
Endpoint: GI50 (nM)
Reply numerically in nM, unit not repeated.

Please review the entries below; each comes with its answer.
Entry under review: `COc1cc2c(cc1OC)C(=O)/C(=C/c1cc(-c3ccc4c(c3)OCO4)n[nH]1)C2` . Reported GI50? 1120

Entry under review: `COc1ccc(-c2cc(/C=C/C(=O)c3ccc(OC)c(OC)c3)[nH]n2)cc1` . Reported GI50? 1350

Entry under review: `COc1ccc(C(=O)/C=C/c2cc(-c3ccc(OC)c(OC)c3)n[nH]2)cc1OC` . Reported GI50? 1090

Entry under review: `COc1cc(-c2cc(/C=C/C(=O)c3ccc(N)cc3)[nH]n2)cc(OC)c1OC` . Reported GI50? 1370

Turning to the following molecule.
Entry under review: `COc1ccc(-c2cc(/C=C/C(=O)c3cc(OC)c(OC)c(OC)c3)[nH]n2)cc1OC` . Reported GI50? 1190
